Recorded cell viability for the following compounds
System: OCI-AML2;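 also: after 48 h exposure read by CellTiter-Glo luminescence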
Assay: cell viability relative to vehicle control; higher = less cytotoxic
Conditions: 10 µM; SRSF2 genotype: P95H/wt
RECORDED_METRIC: cell viability

>>> meas_value("FC(F)c1nc2ccccc2n1-c1nc(N2CCOCC2)nc(N2CCOCC2)n1")
"13.8%"
>>> meas_value("CCc1c2c(nc3ccc(O)cc13)-c1cc3c(c(=O)n1C2)COC(=O)[C@]3(O)CC")
"0.48%"
>>> meas_value("O=C(O)CC(C(=O)O)n1c(O)c(C2=c3cc(Br)ccc3=NC2=O)sc1=S (stereo not drawn)")
"113%"

====

System: OCI-AML2;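 also: after 48 h exposure read by CellTiter-Glo luminescence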
Assay: cell viability relative to vehicle control; higher = less cytotoxic
Settings: 10 µM; SRSF2 genotype: P95H/wt
Where a name gives a salt, the structure may show the parent alone.
Recorded cell viability for the following compounds
RECORDED_METRIC: cell viability (%)

>>> meas_value("O=C(/C=C/n1cnc(-c2cc(C(F)(F)F)cc(C(F)(F)F)c2)n1)N1CC(F)(F)C1")
1.41
>>> meas_value("COc1cc(Nc2c(C#N)cnc3cc(OCCCN4CCN(C)CC4)c(OC)cc23)c(Cl)cc1Cl [Bosutinib (SKI-606)]")
1.53
>>> meas_value("Cc1nc(=O)c2cc(CN(C)c3ccc(C(=O)N[C@@H](CCC(=O)O)C(=O)O)s3)ccc2[nH]1")
106
>>> meas_value("CC[C@H]1OC(=O)[C@H](C)[C@@H](O[C@H]2C[C@@](C)(OC)[C@@H](O)[C@H](C)O2)[C@H](C)[C@@H](O[C@@H]2O[C@H](C)C[C@H](N(C)C)[C@H]2O)[C@](C)(OC)C[C@@H](C)C(=O)[C@H](C)[C@@H](O)[C@]1(C)O")
108
>>> meas_value("C=C1CC2(O)OC3(CC2C(C)C)C(C)CCC13 (stereo unspecified)")
99.9
>>> meas_value("CC(C)C[C@H](NC(=O)CNC(=O)c1cc(Cl)ccc1Cl)B1OC(=O)CC(CC(=O)O)(C(=O)O)O1 (stereo partly specified) [Ixazomib Citrate (MLN9708)]")
0.42
>>> meas_value("CN(C)CC[C@H](CSc1ccccc1)Nc1ccc(S(=O)(=O)NC(=O)c2ccc(N3CCN(Cc4ccccc4-c4ccc(Cl)cc4)CC3)cc2)cc1[N+](=O)[O-]")
0.19
>>> meas_value("OC[C@H]1O[C@@H](OCCc2ccc(O)cc2)[C@H](O)[C@@H](O)[C@@H]1O [Salidroside (Rhodioloside)]")
101
>>> meas_value("C[Si](C)(C)CCOCn1ccc2c(-c3cn[nH]c3)ncnc21")
100
>>> meas_value("CC[C@H]1OC(=O)[C@@](C)(F)C(=O)[C@H](C)[C@@H](O[C@@H]2O[C@H](C)C[C@H](N(C)C)[C@H]2O)[C@](C)(OC)C[C@@H](C)C(=O)[C@H](C)[C@H]2N(CCCCn3cc(-c4cccc(N)c4)nn3)C(=O)O[C@]12C")
94.1
>>> meas_value("COc1cc2nc(N3CCCN(C)CC3)nc(NC3CCN(Cc4ccccc4)CC3)c2cc1OC")
0.23
>>> meas_value("Nc1ccn([C@@H]2O[C@H](CO)[C@@H](O)C2(F)F)c(=O)n1")
7.55
>>> meas_value("O=C1NC(=O)C(c2cnc3ccccn23)=C1c1cn2c3c(cc(F)cc13)CN(C(=O)N1CCCCC1)CC2")
118
>>> meas_value("C[C@H]1[C@H](C)CC[C@]2(C(=O)O[C@@H]3O[C@H](CO[C@@H]4O[C@H](CO)[C@@H](O[C@@H]5O[C@H](C)[C@H](O)[C@@H](O)[C@H]5O)[C@H](O)[C@H]4O)[C@@H](O)[C@H](O)[C@H]3O)CC[C@]3(C)C(=CC[C@@H]4[C@@]5(C)C[C@@H](O)[C@H](O)[C@@](C)(CO)[C@@H]5CC[C@]43C)[C@H]12 [Asiaticoside]")
98.7
>>> meas_value("CNS(=O)(=O)C[C@H]1CC[C@H](N(C)c2[nH]cnc3nccc2-3)CC1 [Oclacitinib maleate]")
77.5
>>> meas_value("C[C@H](Nc1ncnc2nc[nH]c12)c1cc2cccc(Cl)c2c(=O)n1-c1ccccc1")
28.7

Data origin, for the record: the supplement of paper PMC10981050
